molecular target: Bromodomain-containing protein 3 (Homo sapiens); experiment: Binding affinity to BRD3 BD1 domain (unknown origin)
Sequence (Q15059 whole entry, the tested form may be a part): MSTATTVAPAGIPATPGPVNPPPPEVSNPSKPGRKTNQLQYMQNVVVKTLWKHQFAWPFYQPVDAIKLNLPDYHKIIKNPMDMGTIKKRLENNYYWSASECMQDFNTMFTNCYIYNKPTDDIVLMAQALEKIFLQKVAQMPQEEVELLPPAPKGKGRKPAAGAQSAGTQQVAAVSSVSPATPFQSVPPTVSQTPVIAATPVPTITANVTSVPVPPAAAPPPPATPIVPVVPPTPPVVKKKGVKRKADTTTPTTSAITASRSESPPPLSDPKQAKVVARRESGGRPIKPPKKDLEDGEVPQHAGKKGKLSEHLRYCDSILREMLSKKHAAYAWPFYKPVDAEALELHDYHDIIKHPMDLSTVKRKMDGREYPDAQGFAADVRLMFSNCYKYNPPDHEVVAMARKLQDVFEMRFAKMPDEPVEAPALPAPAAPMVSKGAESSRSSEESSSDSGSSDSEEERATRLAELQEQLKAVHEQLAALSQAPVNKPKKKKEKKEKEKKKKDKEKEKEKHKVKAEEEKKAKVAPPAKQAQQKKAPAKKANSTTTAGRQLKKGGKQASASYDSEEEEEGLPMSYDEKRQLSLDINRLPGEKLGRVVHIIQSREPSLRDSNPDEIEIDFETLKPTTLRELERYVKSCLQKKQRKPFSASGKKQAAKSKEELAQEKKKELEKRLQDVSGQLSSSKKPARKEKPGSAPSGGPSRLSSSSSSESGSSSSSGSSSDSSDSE
pKd: −log10 of the molar value.
reported_property: pKd

>>> test_result("CC(=O)N[C@H](C(=O)N1C[C@H](O)C[C@H]1C(=O)NCc1ccc(-c2scnc2C)cc1)C(C)(C)SCCCCCNC(=O)C[C@@H]1N=C(c2ccc(Cl)cc2)c2c(sc(C)c2C)-n2c(C)nnc21")
7.46

---

target: von Hippel-Lindau disease tumor suppressor/SWI/SNF-related matrix-associated actin-dependent regulator of chromatin subfamily A member 4 (Homo sapiens, UniProt P40337+P51532); assay: PROTAC activity at SMARCA4/VHL in human MV4-11 cells assessed as degradation protein measured after 18 hrs
Sequence (P51532 whole entry): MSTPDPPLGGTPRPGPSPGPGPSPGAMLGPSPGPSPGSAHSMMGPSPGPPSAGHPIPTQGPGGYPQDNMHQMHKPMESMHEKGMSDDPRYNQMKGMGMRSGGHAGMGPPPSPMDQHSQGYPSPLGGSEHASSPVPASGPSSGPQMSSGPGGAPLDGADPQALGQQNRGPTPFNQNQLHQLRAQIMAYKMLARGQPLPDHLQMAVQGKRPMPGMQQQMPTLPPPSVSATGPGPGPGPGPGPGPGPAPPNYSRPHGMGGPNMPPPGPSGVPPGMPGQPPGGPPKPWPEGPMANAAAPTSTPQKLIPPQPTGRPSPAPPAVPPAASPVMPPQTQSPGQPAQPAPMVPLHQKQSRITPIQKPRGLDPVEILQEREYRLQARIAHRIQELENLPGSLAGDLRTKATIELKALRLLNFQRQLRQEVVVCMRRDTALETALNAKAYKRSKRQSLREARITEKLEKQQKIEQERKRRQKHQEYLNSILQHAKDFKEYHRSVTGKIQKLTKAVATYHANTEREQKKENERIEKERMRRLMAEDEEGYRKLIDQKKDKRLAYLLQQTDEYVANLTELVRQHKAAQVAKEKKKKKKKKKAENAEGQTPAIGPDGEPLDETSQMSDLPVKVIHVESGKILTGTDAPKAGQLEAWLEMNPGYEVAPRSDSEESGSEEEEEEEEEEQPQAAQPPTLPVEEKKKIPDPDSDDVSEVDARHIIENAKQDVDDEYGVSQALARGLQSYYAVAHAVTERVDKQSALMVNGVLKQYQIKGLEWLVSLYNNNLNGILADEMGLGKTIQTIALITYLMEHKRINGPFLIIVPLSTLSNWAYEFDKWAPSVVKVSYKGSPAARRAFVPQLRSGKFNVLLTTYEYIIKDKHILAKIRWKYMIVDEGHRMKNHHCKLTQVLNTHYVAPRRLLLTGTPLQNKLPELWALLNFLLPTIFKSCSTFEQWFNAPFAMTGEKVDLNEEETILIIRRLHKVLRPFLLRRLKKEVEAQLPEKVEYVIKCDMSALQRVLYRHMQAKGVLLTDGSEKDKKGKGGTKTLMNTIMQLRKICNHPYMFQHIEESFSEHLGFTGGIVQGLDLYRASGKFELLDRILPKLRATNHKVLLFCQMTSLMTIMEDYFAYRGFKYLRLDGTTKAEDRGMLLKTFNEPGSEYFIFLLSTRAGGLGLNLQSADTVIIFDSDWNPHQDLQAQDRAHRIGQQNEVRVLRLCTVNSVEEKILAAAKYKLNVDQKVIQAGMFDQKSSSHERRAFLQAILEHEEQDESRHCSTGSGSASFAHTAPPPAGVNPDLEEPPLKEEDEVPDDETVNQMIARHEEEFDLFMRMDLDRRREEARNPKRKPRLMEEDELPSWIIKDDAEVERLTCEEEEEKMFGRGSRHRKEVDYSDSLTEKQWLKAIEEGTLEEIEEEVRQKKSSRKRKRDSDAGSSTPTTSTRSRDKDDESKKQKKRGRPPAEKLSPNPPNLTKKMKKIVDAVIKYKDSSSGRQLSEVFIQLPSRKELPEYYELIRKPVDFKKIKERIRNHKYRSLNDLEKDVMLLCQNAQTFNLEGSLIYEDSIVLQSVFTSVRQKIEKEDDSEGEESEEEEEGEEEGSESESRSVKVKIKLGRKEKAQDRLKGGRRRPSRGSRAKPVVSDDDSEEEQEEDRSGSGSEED
Sequence (P40337 whole entry): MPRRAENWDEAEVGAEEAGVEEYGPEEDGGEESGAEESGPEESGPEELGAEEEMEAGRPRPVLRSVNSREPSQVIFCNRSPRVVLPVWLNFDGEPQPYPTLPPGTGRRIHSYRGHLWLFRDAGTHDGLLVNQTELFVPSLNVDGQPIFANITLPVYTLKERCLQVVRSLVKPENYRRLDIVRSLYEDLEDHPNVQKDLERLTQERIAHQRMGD
pEC50: −log10 of the molar value.
reported_property: pEC50

>>> test_result("Cc1ncsc1-c1ccc(CNC(=O)[C@H]2C[C@H](O)CN2C(=O)[C@H](NC(=O)C2(F)CC2)C(C)(C)C)c(OCCOc2ccc(CN3CCN(c4cc(-c5ccccc5O)nnc4N)CC3)cc2)c1")
7.96
